# credit: patent US20230374151A1

- system tested: T1, TnMUC1 peptide (fully glycosylated), biotinylated
- T1 construct: Two batches (36-2 and 65-1) of the same peptide; also called 36-2; 7-36-2
- protocol summary: SPR (Biacore T200), peptide 36-2 on CAP chip, scFv as analyte, 1:1 fit; average
measured attribute: Kd (nM)
Could you give me the number in nM? Just the number is fine.

Please review the following examples before continuing.
humanised anti-TnMUC1 scFv protein 16P4 (82A), L0-H3 (scFv, Supernatant of construct 6D4 in the Octet assay; purified 16P4 elsewhere. scFv of CAR MB021; also called 6D4) scFv: DIVMTQSPDSLAVSLGERATINCKSSQSLLNSGDQKNYLTWYQQKPGQPPKLLIYWASTRESGVPDRFSGSGSGTDFTLTISSLQAEDVAVYYCQNDYSYPLTFGQGTKLEIKGGGGSGGGGSGGGGSGGGGSQVQLVQSGAEVKKPGSSVKVSCKASGYTFTDHAIHWVRQAPGQGLEWMGHFSPGNTDIKYNDKFKGRVTITADKSTSTAYMELSSLRSEDTAVYYCKTSTFFFDYWGQGTTVTVSSAAAHHHHHH :: 196
humanised anti-TnMUC1 scFv protein 11P6 (89A), L0-H5 (scFv, Supernatant of construct 6D6 in the Octet assay; purified 11P6 elsewhere; also called 6D6) scFv: DIVMTQSPDSLAVSLGERATINCKSSQSLLNSGDQKNYLTWYQQKPGQPPKLLIYWASTRESGVPDRFSGSGSGTDFTLTISSLQAEDVAVYYCQNDYSYPLTFGQGTKLEIKGGGGSGGGGSGGGGSGGGGSQVQLVQSGAEVKKPGSSVKVSCKASGYTFTDHAIHWVRQAPGQGLEWIGHFSPGNTDIKYNDKFKGRATLTVDRSTSTAYMELSSLRSEDTAVYFCKTSTFFFDYWGQGTTVTVSSAAAHHHHHH :: 26.7
humanised anti-TnMUC1 scFv protein 11P12 (94A), L1-H5 (scFv, Supernatant of construct 6D12 in the Octet assay; purified 11P12 elsewhere; also called 6D12) scFv: ELVMTQSPDSLAVSLGERATINCKSSQSLLNSGDQKNYLTWYQQKPGQPPKLLIYWASTRESGVPDRFSGSGSGTDFTLTISSLQAEDVAVYYCQNDYSYPLTFGQGTKLEIKGGGGSGGGGSGGGGSGGGGSQVQLVQSGAEVKKPGSSVKVSCKASGYTFTDHAIHWVRQAPGQGLEWIGHFSPGNTDIKYNDKFKGRATLTVDRSTSTAYMELSSLRSEDTAVYFCKTSTFFFDYWGQGTTVTVSSAAAHHHHHH :: 54.4
humanised anti-TnMUC1 scFv protein 13P24 (77A), L3-H5 (scFv, Two purification lots (13P24, 28P24); also called 28P24; 6D24) scFv: ELVMTQSPDSLAVSLGERATINCKSSQSLLNSGDQKNYLTWYQQKPGQPPKLLIFWASTRESGVPDRFSGSGSGTDFTLTISSLQAEDVAVYYCQNDYSYPLTFGQGTKLEIKGGGGSGGGGSGGGGSGGGGSQVQLVQSGAEVKKPGSSVKVSCKASGYTFTDHAIHWVRQAPGQGLEWIGHFSPGNTDIKYNDKFKGRATLTVDRSTSTAYMELSSLRSEDTAVYFCKTSTFFFDYWGQGTTVTVSSAAAHHHHHH :: 46.4

stdin: Tell me the measured Kd of humanised anti-TnMUC1 scFv protein 13P16 (97A), L2-H3 (scFv, Supernatant of construct 6D16 in the Octet assay; purified 13P16 elsewhere. scFv of CAR MB024; also called 6D16) scFv: DIVMTQSPDSLAVSLGERATINCKSSQSLLNSGDQKNYLTWYQQKPGQPPKLLIFWASTRESGVPDRFSGSGSGTDFTLTISSLQAEDVAVYYCQNDYSYPLTFGQGTKLEIKGGGGSGGGGSGGGGSGGGGSQVQLVQSGAEVKKPGSSVKVSCKASGYTFTDHAIHWVRQAPGQGLEWMGHFSPGNTDIKYNDKFKGRVTITADKSTSTAYMELSSLRSEDTAVYYCKTSTFFFDYWGQGTTVTVSSAAAHHHHHH , please.
stdout: 174

stdin: Tell me the measured Kd of humanised anti-TnMUC1 scFv protein 13P18 (19A), L2-H5 (scFv, Supernatant of construct 6D18 in the Octet assay; purified 13P18 elsewhere. scFv of CAR MB025; also called 6D18) scFv: DIVMTQSPDSLAVSLGERATINCKSSQSLLNSGDQKNYLTWYQQKPGQPPKLLIFWASTRESGVPDRFSGSGSGTDFTLTISSLQAEDVAVYYCQNDYSYPLTFGQGTKLEIKGGGGSGGGGSGGGGSGGGGSQVQLVQSGAEVKKPGSSVKVSCKASGYTFTDHAIHWVRQAPGQGLEWIGHFSPGNTDIKYNDKFKGRATLTVDRSTSTAYMELSSLRSEDTAVYFCKTSTFFFDYWGQGTTVTVSSAAAHHHHHH , please.
stdout: 70.9
